system: Bacillus spizizenii; experiment: Antimicrobial activity against Bacillus subtilis ATCC 6633 after 24 hrs by broth microdilution method; assay type: functional; conditions: ATCC 6633, 24 h
Starred links: 1 amine or outer side, 2 acyl side, 3 side chain; linkers in the order of their positions; H or OH if unused. Positions of bridges follow the written chain, without caps; N, C: chain ends. Non-standard residues stand in square brackets, D forms with d. Residues, ends and D or L forms follow the SMILES beside them. R5 = C=CCCC[C@@](C)(N)C(=O)O; Suc = O=C(CCC(=O)[*:2])[*:1]

Compound	MIC [µg/mL]
CC(=O)N[C@@H](CCCCN)C(=O)N[C@]1(C)CCC/C=C\CCC[C@](C)(C(=O)N[C@@H](CCCCN)C(=O)N[C@@H](CCCCN)C(=O)N[C@]2(C)CCC/C=C\CCC[C@](C)(C(=O)N[C@@H](C)C(=O)N[C@@H](CCCCN)C(N)=O)NC(=O)[C@H](C)NC(=O)[C@H](CCCCN)NC(=O)[C@H](C)NC2=O)NC(=O)[C@H](C)NC(=O)[C@H](CCCCN)NC(=O)[C@H](Cc2c[nH]c3ccccc23)NC1=O (Ac-K[R5]WKA[R5]KK[R5]AKA[R5]AK-NH2; staple (Z) 2-6, 9-13)	3.1
C[C@@H]1NC(=O)[C@H](CCCCN)NC(=O)[C@H](C)NC(=O)[C@](C)(NC(=O)[C@H](CCCCN)NC(=O)[C@H](CCCCN)NC(=O)[C@@]2(C)CCC/C=C\CCC[C@@](C)(NC(=O)[C@@H](N)CCCCN)C(=O)N[C@@H](C)C(=O)N[C@@H](CCCCN)C(=O)N[C@@H](Cc3c[nH]c4ccccc34)C(=O)N2)CCC/C=C\CCC[C@](C)(C(=O)N[C@@H](C)C(=O)N[C@@H](CCCCN)C(N)=O)NC1=O (H-K[R5]AKW[R5]KK[R5]AKA[R5]AK-NH2; staple (Z) 2-6, 9-13)	1.6
C[C@@H]1NC(=O)[C@H](CCCCN)NC(=O)[C@H](C)NC(=O)[C@](C)(NC(=O)[C@H](CCCCN)NC(=O)[C@H](CCCCN)NC(=O)[C@@]2(C)CCC/C=C\CCC[C@@](C)(NC(=O)[C@H](CCCCN)NC(=O)CCC(=O)O)C(=O)N[C@@H](C)C(=O)N[C@@H](CCCCN)C(=O)N[C@@H](Cc3c[nH]c4ccccc34)C(=O)N2)CCC/C=C\CCC[C@](C)(C(=O)N[C@@H](C)C(=O)N[C@@H](CCCCN)C(N)=O)NC1=O (Suc-K[R5]AKW[R5]KK[R5]AKA[R5]AK-NH2; staple (Z) 2-6, 9-13)	1.6
CC(=O)N[C@@H](CCCCN)C(=O)N[C@]1(C)CCC/C=C\CCC[C@](C)(C(=O)N[C@@H](CCCCN)C(=O)N[C@@H](CCCCN)C(=O)N[C@@H](C)C(=O)N[C@@H](C)C(=O)N[C@@H](CCCCN)C(=O)N[C@@H](C)C(=O)N[C@@H](C)C(=O)N[C@@H](Cc2c[nH]c3ccccc23)C(=O)N[C@@H](CCCCN)C(N)=O)NC(=O)[C@H](C)NC(=O)[C@H](CCCCN)NC(=O)[C@H](C)NC1=O (Ac-K[R5]AKA[R5]KKAAKAAWK-NH2; staple (Z) 2-6)	25
CC(=O)N[C@@H](CCCCN)C(=O)N[C@]1(C)CCC/C=C\CCC[C@](C)(C(=O)N[C@@H](CCCCN)C(=O)N[C@@H](CCCCN)C(=O)N[C@]2(C)CCC/C=C\CCC[C@](C)(C(=O)N[C@@H](C)C(=O)N[C@@H](CCCCN)C(N)=O)NC(=O)[C@H](Cc3c[nH]c4ccccc34)NC(=O)[C@H](CCCCN)NC(=O)[C@H](C)NC2=O)NC(=O)[C@H](C)NC(=O)[C@H](CCCCN)NC(=O)[C@H](C)NC1=O (Ac-K[R5]AKA[R5]KK[R5]AKW[R5]AK-NH2; staple (Z) 2-6, 9-13)	1.6
CC(=O)N[C@@H](CCCCN)C(=O)N[C@]1(C)CCC/C=C\CCC[C@](C)(C(=O)N[C@@H](CCCCN)C(=O)N[C@@H](CCCCN)C(=O)N[C@]2(C)CCC/C=C\CCC[C@](C)(C(=O)N[C@@H](Cc3c[nH]c4ccccc34)C(=O)N[C@@H](CCCCN)C(N)=O)NC(=O)[C@H](C)NC(=O)[C@H](CCCCN)NC(=O)[C@H](C)NC2=O)NC(=O)[C@H](C)NC(=O)[C@H](CCCCN)NC(=O)[C@H](C)NC1=O (Ac-K[R5]AKA[R5]KK[R5]AKA[R5]WK-NH2; staple (Z) 2-6, 9-13)	1.6

====

tested on: Staphylococcus aureus; experiment: Antimicrobial activity against Staphylococcus aureus ATCC 6538p after 24 hrs by broth microdilution method; assay type: functional
Starred links: 1 amine or outer side, 2 acyl side, 3 side chain; linkers in the order of their positions; H or OH if unused. Positions of bridges follow the written chain, without caps; N, C: chain ends. Non-standard residues stand in square brackets, D forms with d. Residues, ends and D or L forms follow the SMILES beside them. R5 = C=CCCC[C@@](C)(N)C(=O)O; Suc = O=C(CCC(=O)[*:2])[*:1]

Compound	MIC, mg/L
CC(=O)N[C@@H](CCCCN)C(=O)N[C@]1(C)CCC/C=C\CCC[C@](C)(C(=O)N[C@@H](CCCCN)C(=O)N[C@@H](CCCCN)C(=O)N[C@]2(C)CCC/C=C\CCC[C@](C)(C(=O)N[C@@H](C)C(=O)N[C@@H](CCCCN)C(N)=O)NC(=O)[C@H](C)NC(=O)[C@H](CCCCN)NC(=O)[C@H](C)NC2=O)NC(=O)[C@H](Cc2c[nH]c3ccccc23)NC(=O)[C@H](CCCCN)NC(=O)[C@H](C)NC1=O (Ac-K[R5]AKW[R5]KK[R5]AKA[R5]AK-NH2; staple (Z) 2-6, 9-13)	1.6
C[C@@H]1NC(=O)[C@H](CCCCN)NC(=O)[C@H](C)NC(=O)[C@](C)(NC(=O)[C@H](CCCCN)NC(=O)[C@H](CCCCN)NC(=O)[C@@]2(C)CCC/C=C\CCC[C@@](C)(NC(=O)[C@@H](N)CCCCN)C(=O)N[C@@H](C)C(=O)N[C@@H](CCCCN)C(=O)N[C@@H](Cc3c[nH]c4ccccc34)C(=O)N2)CCC/C=C\CCC[C@](C)(C(=O)N[C@@H](C)C(=O)N[C@@H](CCCCN)C(N)=O)NC1=O (H-K[R5]AKW[R5]KK[R5]AKA[R5]AK-NH2; staple (Z) 2-6, 9-13)	1.6
CC(=O)N[C@@H](CCCCN)C(=O)N[C@]1(C)CCC/C=C\CCC[C@](C)(C(=O)N[C@@H](CCCCN)C(=O)N[C@@H](CCCCN)C(=O)N[C@@H](C)C(=O)N[C@@H](C)C(=O)N[C@@H](CCCCN)C(=O)N[C@@H](C)C(=O)N[C@@H](C)C(=O)N[C@@H](Cc2c[nH]c3ccccc23)C(=O)N[C@@H](CCCCN)C(N)=O)NC(=O)[C@H](C)NC(=O)[C@H](CCCCN)NC(=O)[C@H](C)NC1=O (Ac-K[R5]AKA[R5]KKAAKAAWK-NH2; staple (Z) 2-6)	9.4
C[C@@H]1NC(=O)[C@H](CCCCN)NC(=O)[C@H](C)NC(=O)[C@](C)(NC(=O)[C@H](CCCCN)NC(=O)[C@H](CCCCN)NC(=O)[C@@]2(C)CCC/C=C\CCC[C@@](C)(NC(=O)[C@H](CCCCN)NC(=O)CCC(=O)O)C(=O)N[C@@H](C)C(=O)N[C@@H](CCCCN)C(=O)N[C@@H](Cc3c[nH]c4ccccc34)C(=O)N2)CCC/C=C\CCC[C@](C)(C(=O)N[C@@H](C)C(=O)N[C@@H](CCCCN)C(N)=O)NC1=O (Suc-K[R5]AKW[R5]KK[R5]AKA[R5]AK-NH2; staple (Z) 2-6, 9-13)	1.6
CC(=O)N[C@@H](CCCCN)C(=O)N[C@]1(C)CCC/C=C\CCC[C@](C)(C(=O)N[C@@H](CCCCN)C(=O)N[C@@H](CCCCN)C(=O)N[C@]2(C)CCC/C=C\CCC[C@](C)(C(=O)N[C@@H](Cc3c[nH]c4ccccc34)C(=O)N[C@@H](CCCCN)C(N)=O)NC(=O)[C@H](C)NC(=O)[C@H](CCCCN)NC(=O)[C@H](C)NC2=O)NC(=O)[C@H](C)NC(=O)[C@H](CCCCN)NC(=O)[C@H](C)NC1=O (Ac-K[R5]AKA[R5]KK[R5]AKA[R5]WK-NH2; staple (Z) 2-6, 9-13)	4.8

====

assay: Hemolytic activity in human RBC at 12.5 uM after 30 mins relative to control; format: ADME, cell-based, Erythrocyte; details: human red blood cells (RBC), read-out: Activity
Positions of bridges follow the written chain, without caps; N, C: chain ends. Non-standard residues stand in square brackets, D forms with d. Residues, ends and D or L forms follow the SMILES beside them. R5 = C=CCCC[C@@](C)(N)C(=O)O
# Lookup of reported hemolysis at 0.5 h, 12.5 µM keyed by entry

Molecule	Value unit	hemolysis at 0.5 h, 12.5 µM
CC(=O)N[C@@H](CCCCN)C(=O)N[C@]1(C)CCC/C=C\CCC[C@](C)(C(=O)N[C@@H](CCCCN)C(=O)N[C@@H](CCCCN)C(=O)N[C@]2(C)CCC/C=C\CCC[C@](C)(C(=O)N[C@@H](C)C(=O)N[C@@H](CCCCN)C(N)=O)NC(=O)[C@H](C)NC(=O)[C@H](CCCCN)NC(=O)[C@H](C)NC2=O)NC(=O)[C@H](C)NC(=O)[C@H](CCCCN)NC(=O)[C@H](Cc2c[nH]c3ccccc23)NC1=O (Ac-K[R5]WKA[R5]KK[R5]AKA[R5]AK-NH2; staple (Z) 2-6, 9-13)	%	28.9
C[C@@H]1NC(=O)[C@H](CCCCN)NC(=O)[C@H](C)NC(=O)[C@](C)(NC(=O)[C@H](CCCCN)NC(=O)[C@H](CCCCN)NC(=O)[C@@]2(C)CCC/C=C\CCC[C@@](C)(NC(=O)[C@@H](N)CCCCN)C(=O)N[C@@H](C)C(=O)N[C@@H](CCCCN)C(=O)N[C@@H](Cc3c[nH]c4ccccc34)C(=O)N2)CCC/C=C\CCC[C@](C)(C(=O)N[C@@H](C)C(=O)N[C@@H](CCCCN)C(N)=O)NC1=O (H-K[R5]AKW[R5]KK[R5]AKA[R5]AK-NH2; staple (Z) 2-6, 9-13)	%	13.5
